Some compounds, each annotated with its measured T/C.
- System: P388 leukemia ip, CD2F1 mice, survival T/C
- METHOD_DESCRIPTION: NCI In Vivo Anticancer Drug Screen. Data for tumor model P388 Leukemia (intraperitoneal) in CD2F1 (CDF1) mice
- CONDITION_PARAMETERS: endpoint: median survival time; dose: 50.0 mg/kg/injection; schedule: Q01DX009 (ip); vehicle: saline with Tween-80; higher = longer survival
Inconclusive results and toxic doses are left out.

COMPOUND | T/C
O=C1OC2=CC=CC=CC2C12C1C=CC=CC12 (stereo unspecified) | 100 % of control
Cc1ccc(S(=O)(=O)NC(=O)N(C)NC(=O)C(=O)NCc2ccco2)cc1 | 103 % of control
CC1=Nc2ccc([N+](=O)[O-])cc2N=C(C)C1 | 101 % of control
COC(=O)c1ccccc1NC(Cc1ccccc1)=NC(C)(C)C | 86 % of control
CCc1cc2c(cc1C(C)=O)C(C)(C)CCC2(C)C | 94 % of control
CCOC(=O)C1=C(C)NC(C)=C(C(=O)OCC)C1c1ccc(Cl)cc1 | 88 % of control
CCCCCCCCCCCCCCCCCC1=NCCN1CCN | 104 % of control
O=C(N=Cc1ccco1)C(=O)Nc1ccc(Cl)c([N+](=O)[O-])c1 | 100 % of control
Cc1cc(C(=O)N/N=C/c2cc(Cl)cc(Cl)c2O)c2cc(Br)ccc2n1 | 91 % of control
O=S1(=O)CC(N2CCCCC2)C2=C(O1)c1ccccc1SC2 (stereo unspecified) | 88 % of control
Nc1n[nH]c(-c2ccccc2)n1 | 117 % of control
CCC(c1ccccc1)C(C#N)c1ccccc1 (stereo unspecified) | 95 % of control
CN(C)C=Nc1cc(Cl)c(Cl)cc1Cl | 106 % of control
CC(C)(C(=O)O)c1ccc(C(=O)O)c(Br)c1 | 91 % of control
O=C(c1ccccc1)C(F)(F)C(F)(F)F | 109 % of control
O=[N+]([O-])c1ccc(OCS(=O)(=O)c2ccc(Cl)cc2)cc1 | 95 % of control
